Every entry's value here was drawn from the supplement of paper PMC11246515.

# ASSAY_PROCEDURE: total protein half-life in vivo (active degradation + dilution); higher = more stable protein
# MEASUREMENT_SETUP: wild type E. coli NCM3722; growth: C-lim chemostat; doubling time 12 h
Param threshold (10 h) applies to total protein half-life in vivo; output True when value >= threshold, False when value < threshold.

INPUT_SEQUENCE: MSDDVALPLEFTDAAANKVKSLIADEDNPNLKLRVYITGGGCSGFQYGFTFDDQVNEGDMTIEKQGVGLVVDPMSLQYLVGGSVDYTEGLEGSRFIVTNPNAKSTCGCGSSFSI [P0ACC3]
CLASS_ASSIGNMENT: False
//
INPUT_SEQUENCE: MKQLWFAMSLVTGSLLFSANASATPASGALLQQMNLASQSLNYELSFISINKQGVESLRYRHARLDNRPLAQLLQMDGPRREVVQRGNEISYFEPGLEPFTLNGDYIVDSLPSLIYTDFKRLSPYYDFISVGRTRIADRLCEVIRVVARDGTRYSYIVWMDTESKLPMRVDLLDRDGETLEQFRVIAFNVNQDISSSMQTLAKANLPPLLSVPVGEKAKFSWTPTWLPQGFSEVSSSRRPLPTMDNMPIESRLYSDGLFSFSVNVNRATPSSTDQMLRTGRRTVSTSVRDNAEITIVGELPPQTAKRIAENIKFGAAQ [P0AFX9]
CLASS_ASSIGNMENT: True
//
INPUT_SEQUENCE: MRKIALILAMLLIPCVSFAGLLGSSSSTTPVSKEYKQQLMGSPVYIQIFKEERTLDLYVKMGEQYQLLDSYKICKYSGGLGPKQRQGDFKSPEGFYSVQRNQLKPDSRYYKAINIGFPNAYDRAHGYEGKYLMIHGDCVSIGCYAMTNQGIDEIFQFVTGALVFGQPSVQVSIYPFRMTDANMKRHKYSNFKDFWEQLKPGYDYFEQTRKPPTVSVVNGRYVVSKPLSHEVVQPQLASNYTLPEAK [P0AA99]
CLASS_ASSIGNMENT: False
//
INPUT_SEQUENCE: MKKIAAISLISIFIMSGCAVHNDETSIGKFGLAYKSNIQRKLDNQYYTEAEASLARGRISGAENIVKNDATHFCVTQGKKMQIVELKTEGVGLHGVARLTFKCGE
CLASS_ASSIGNMENT: True
//
INPUT_SEQUENCE: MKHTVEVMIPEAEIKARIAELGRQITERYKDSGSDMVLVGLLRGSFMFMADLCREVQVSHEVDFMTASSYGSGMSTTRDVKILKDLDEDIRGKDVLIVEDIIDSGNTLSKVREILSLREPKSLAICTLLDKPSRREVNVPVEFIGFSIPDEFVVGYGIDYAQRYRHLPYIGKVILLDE [P0A9M2]
CLASS_ASSIGNMENT: False
//
INPUT_SEQUENCE: MKVKVLSLLVPALLVAGAANAAEVYNKDGNKLDLYGKVDGLHYFSDNKDVDGDQTYMRLGFKGETQVTDQLTGYGQWEYQIQGNSAENENNSWTRVAFAGLKFQDVGSFDYGRNYGVVYDVTSWTDVLPEFGGDTYGSDNFMQQRGNGFATYRNTDFFGLVDGLNFAVQYQGKNGNPSGEGFTSGVTNNGRDALRQNGDGVGGSITYDYEGFGIGGAISSSKRTDAQNTAAYIGNGDRAETYTGGLKYDANNIYLAAQYTQTYNATRVGSLGWANKAQNFEAVAQYQFDFGLRPSLAYLQSKGKNLGRGYDDEDILKYVDVGATYYFNKNMSTYVDYKINLLDDNQFTRDAGINTDNIVALGLVYQF
CLASS_ASSIGNMENT: True
//
INPUT_SEQUENCE: MLELNFSQTLGNHCLTINETLPANGITAIFGVSGAGKTSLINAISGLTRPQKGRIVLNGRVLNDAEKGICLTPEKRRVGYVFQDARLFPHYKVRGNLRYGMSKSMVDQFDKLVALLGIEPLLDRLPGSLSGGEKQRVAIGRALLTAPELLLLDEPLASLDIPRKRELLPYLQRLTREINIPMLYVSHSLDEILHLADRVMVLENGQVKAFGALEEVWGSSVMNPWLPKEQQSSILKVTVLEHHPHYAMTALALGDQHLWVNKLDEPLQAALRIRIQASDVSLVLQPPQQTSIRNVLRAKVVNSYDDNGQVEVELEVGGKTLWARISPWARDELAIKPGLWLYAQIKSVSITA
CLASS_ASSIGNMENT: True
